- Protocol summary: NCI Yeast Anticancer Drug Screen. Data for the mec2-1 strain (AID 157)
- Reported conditions: S. cerevisiae mec2-1 strain, at 33.0 µM
About 79,000 compounds went through this panel and 15% of them were active in at least one assay; those are over-represented in the sample as a whole. Calls of active or inactive are those of the source. Cut-off read from the data, not from the text of the source: active = growth inhibition above about 70%; inactive = the rest.
In this exercise, the only acceptable responses are active, inactive

These recorded examples may help you get a feel for the data.
> print(dat)
                                   compound  category.label
1                   Nc1nnc(N)n1-n1c(N)nnc1N        inactive
2          COc1ccc(/C=C(/C)[N+](=O)[O-])cc1          active
3                             Oc1cccnc1[Se]        inactive
4               C=CC[N+]12CN3CN(CN(C3)C1)C2        inactive
5  Cc1ccc2c(c1)C1(C)c3cc(C)ccc3SP1S2 (configuration not stated)        inactive

## Task Look up the recorded call for "O=C(/C=C(\c1ccccc1)N1CC1)c1ccccc1" in this test.
## Result inactive

## Task Look up the recorded call for "O=c1oc2ccccc2c(O)c1C(c1ccc2ccccc2c1)c1c(O)c2ccccc2oc1=O" in this test.
## Result active

The measured values listed here are drawn from PubChem BioAssay (NCI).
